The measured values listed here are drawn from patent US10301288B2.

Experiment: Pharmacokinetics and colon distribution in mice
Type: in vivo, male C57BL/6 mice
Settings: male, C57BL/6, plasma, po; mouse, 5 mg/kg p.o., 1 hr; read-out: Mean concentration, Plasma
Protocol: Blood samples (approximately 60 μL) were collected from retro orbital plexus such that the samples were obtained at 1, 2, 4, 6, 8, 12 and 24 hr. […] All samples were processed for analysis by protein precipitation using acetonitrile and analyzed with developed LC-MS/MS method (LLOQ: 2.02 ng/mL in plasma and 1.01 ng/mL in colon tissue). Pharmacokinetic parameters were calculated using the non-compartmental analysis tool of Phoenix WinNonlin® software (version 6.3).
OBSERVABLE: concentration at 1 h (ng/mL)
Kindly provide the numeric value in ng/mL only, without the unit symbol.

// sample "C#Cc1cc(Nc2nccc(Oc3ccc(NC(=O)Nc4cc(C(C)(C)C)nn4-c4ccc(C)cc4)c4ccccc34)n2)cc(C(=O)NCCOCCOCCOC)c1" , its concentration at 1 h was 11.7
